As a worked illustration, we turn to MIC data collected for Proteus vulgaris OX 19.

molecule	MIC / µM
CCCOCc1cc2ncc(C(=O)N[C@@H](C(=O)N[C@@H]3C(=O)N4[C@@H]3SC(C)(C)[C@@H]4C(=O)O)c3ccccc3)c(OC(=O)OCC)c2cc1CC [Beisp. 5]	0.78
CCc1cc2c(OC(=O)OCC(C)C)c(C(=O)N[C@@H](C(=O)N[C@@H]3C(=O)N4[C@@H]3SC(C)(C)[C@@H]4C(=O)O)c3ccccc3)cnc2cc1COc1ccc(C(C)=O)cc1 [Beisp. 15]	0.39
CCc1cc2c(OC(=O)OCC(C)C)c(C(=O)N[C@@H](C(=O)N[C@@H]3C(=O)N4[C@@H]3SC(C)(C)[C@@H]4C(=O)O)c3ccccc3)cnc2cc1COc1ccc(Cl)c(C)c1 [Beisp. 17]	0.78
CCOC(=O)Oc1c(C(=O)N[C@@H](C(=O)N[C@@H]2C(=O)N3[C@@H]2SC(C)(C)[C@@H]3C(=O)O)c2ccccc2)cnc2cc(COc3ccc(Br)cc3)c(CC)cc12 [Beisp. 2]	0.78

* * *

Entries and their measured MIC follow.
Test system: Pseudomonas aeruginosa NCTC 10701
protocol: In-vitro test, inhibitory concentration by dilution series
Type: cell-based
run.conditions: NCTC10701; IV = Pseudomonas aeruginosa NCTC 10701; step = concentration with no visible growth; read-out: Hemmkonzentration nach Verdünnung (Verdünnungsreihe) (converted)

compound	units.text	MIC
CCc1cc2c(OC(=O)OCC(C)C)c(C(=O)N[C@@H](C(=O)N[C@@H]3C(=O)N4[C@@H]3SC(C)(C)[C@@H]4C(=O)O)c3ccccc3)cnc2cc1COC(C)C [Beisp. 21]	µM	0.78
CCc1cc2c(OC(=O)OCC(C)C)c(C(=O)N[C@@H](C(=O)N[C@@H]3C(=O)N4[C@@H]3SC(C)(C)[C@@H]4C(=O)O)c3ccccc3)cnc2cc1COC [Beisp. 18]	µM	0.78
CCCOCc1cc2ncc(C(=O)N[C@@H](C(=O)N[C@@H]3C(=O)N4[C@@H]3SC(C)(C)[C@@H]4C(=O)O)c3ccccc3)c(OC(=O)OCC)c2cc1CC [Beisp. 5]	µM	0.78
CCOCc1cc2ncc(C(=O)N[C@@H](C(=O)N[C@@H]3C(=O)N4[C@@H]3SC(C)(C)[C@@H]4C(=O)O)c3ccccc3)c(OC(=O)OCC)c2cc1CC [Beisp. 6]	µM	0.78
CCc1cc2c(OC(=O)OCC(C)C)c(C(=O)N[C@@H](C(=O)N[C@@H]3C(=O)N4[C@@H]3SC(C)(C)[C@@H]4C(=O)O)c3ccccc3)cnc2cc1COc1ccc(C(C)=O)cc1 [Beisp. 15]	µM	3.12
COc1cc2ncc(C(=O)N[C@@H](C(=O)N[C@@H]3C(=O)N4[C@@H]3SC(C)(C)[C@@H]4C(=O)O)c3ccccc3)c(OC(=O)OCC(C)C)c2cc1OC [Beisp. 20]	µM	0.39
